- target-or-test-system: T1, human SIRP-α v1 D1 domain (human, UniProt P78324 31-149)
- T1 construct: also called human v1; human α v1
- T1 sequence (P78324 31-149 limits assumed): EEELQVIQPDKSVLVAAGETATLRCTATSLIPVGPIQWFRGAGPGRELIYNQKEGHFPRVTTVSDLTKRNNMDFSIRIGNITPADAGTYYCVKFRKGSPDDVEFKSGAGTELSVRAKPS
- assay-summary: SPR, antibody immobilised on GLC chip
binders and their reported Kd
Your answer is read as nM, so omit the unit and give the number.

antibody 119 variant Mut/mut (VL mut all / VH mut) (antibody, human IgG1, V domains shown, Human IgG1 with L234A/L235A/G237A/N297A; Labels are in the order VL/VH) VH: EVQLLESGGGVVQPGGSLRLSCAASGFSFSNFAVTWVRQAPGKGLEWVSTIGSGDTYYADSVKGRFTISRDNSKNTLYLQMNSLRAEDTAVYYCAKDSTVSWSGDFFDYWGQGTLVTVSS VL: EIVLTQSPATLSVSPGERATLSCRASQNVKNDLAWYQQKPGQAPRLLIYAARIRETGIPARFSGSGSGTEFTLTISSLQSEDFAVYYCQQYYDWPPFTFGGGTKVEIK has a reported Kd of 0.317

antibody 135 variant mut/wt (antibody, human IgG1, V domains shown, Human IgG1 with L234A/L235A/G237A/N297A; Labels are in the order VL/VH) VH: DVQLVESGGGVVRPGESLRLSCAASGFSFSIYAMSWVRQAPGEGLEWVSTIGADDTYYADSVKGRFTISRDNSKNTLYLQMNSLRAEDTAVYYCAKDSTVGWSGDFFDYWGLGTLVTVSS VL: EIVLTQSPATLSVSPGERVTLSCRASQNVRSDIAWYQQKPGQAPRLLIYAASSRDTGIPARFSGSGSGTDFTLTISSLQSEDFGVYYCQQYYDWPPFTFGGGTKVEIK has a reported Kd of 0.149

antibody 135 variant mut/mut (antibody, human IgG1, V domains shown, Human IgG1 with L234A/L235A/G237A/N297A; Labels are in the order VL/VH) VH: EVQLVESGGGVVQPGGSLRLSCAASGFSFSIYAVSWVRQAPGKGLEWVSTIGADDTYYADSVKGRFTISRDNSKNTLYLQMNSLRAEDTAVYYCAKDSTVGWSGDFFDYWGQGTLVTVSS VL: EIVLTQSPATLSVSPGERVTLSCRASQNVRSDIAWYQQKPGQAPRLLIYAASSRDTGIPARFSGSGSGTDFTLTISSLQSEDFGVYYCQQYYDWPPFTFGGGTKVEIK has a reported Kd of 0.192
